Cited source for all entries: patent US12492188B2

# IC50 per entry
- TARGET_OR_TEST_SYSTEM: UniProt Q9NR97
- Sequence (Q9NR97 27-1041): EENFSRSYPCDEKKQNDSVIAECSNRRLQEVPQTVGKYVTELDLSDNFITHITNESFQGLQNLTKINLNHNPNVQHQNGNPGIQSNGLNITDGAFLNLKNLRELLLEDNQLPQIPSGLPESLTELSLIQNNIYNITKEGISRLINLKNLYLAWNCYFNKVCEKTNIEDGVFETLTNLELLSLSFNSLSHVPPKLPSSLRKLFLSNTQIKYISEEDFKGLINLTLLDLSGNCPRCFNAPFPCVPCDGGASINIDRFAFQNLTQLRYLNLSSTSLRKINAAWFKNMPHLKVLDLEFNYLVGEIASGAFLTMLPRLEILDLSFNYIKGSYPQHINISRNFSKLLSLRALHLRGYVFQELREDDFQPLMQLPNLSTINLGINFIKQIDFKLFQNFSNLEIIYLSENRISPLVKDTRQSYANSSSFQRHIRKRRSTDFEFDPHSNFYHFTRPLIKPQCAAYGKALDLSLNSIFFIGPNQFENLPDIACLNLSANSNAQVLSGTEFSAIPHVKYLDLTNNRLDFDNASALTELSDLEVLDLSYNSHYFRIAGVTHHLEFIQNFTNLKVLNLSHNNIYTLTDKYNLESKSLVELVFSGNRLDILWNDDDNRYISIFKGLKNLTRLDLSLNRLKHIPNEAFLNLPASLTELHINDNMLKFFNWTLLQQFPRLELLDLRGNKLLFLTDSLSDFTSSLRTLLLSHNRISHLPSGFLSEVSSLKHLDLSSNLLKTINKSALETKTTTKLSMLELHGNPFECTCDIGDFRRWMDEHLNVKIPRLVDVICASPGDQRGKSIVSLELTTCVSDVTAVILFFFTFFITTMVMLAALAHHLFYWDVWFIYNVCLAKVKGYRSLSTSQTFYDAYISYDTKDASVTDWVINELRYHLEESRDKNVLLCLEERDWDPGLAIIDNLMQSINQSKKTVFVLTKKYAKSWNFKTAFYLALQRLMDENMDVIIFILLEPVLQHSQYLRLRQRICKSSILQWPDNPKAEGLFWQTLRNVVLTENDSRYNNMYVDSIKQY
- ASSAY_INFO: TLR8 inhibition reporter assay (HEK-Blue cells, secreted embryonic alkaline phosphatase reporter)
- CONDITIONS_USED: HEK-Blue cells overexpressing human TLR8, stimulated with R848 15.9 μM; read-out: TLR 8 IC50

Here's what some known entries look like.
>>> df
                                   compound   result
0  Cc1cc(C2CCN(C3CC4CCC(C3)N4C3COC3)CC2)cc2c1nc(-c1ccc(S(C)(=O)=O)cc1)n2C (single isomer, unassigned) [Example 158]  > 25 µM
1  COc1ccc(-c2nc3ccc(C4CCN(C5CCN(CC(C)C)CC5)CC4)cc3n2CC(F)F)cc1OC  > 50 µM
2  Cc1cc(-c2ccc(CN3CCC(N(C)C4CC4)CC3)cc2)cc2c1nc(-c1ccc(S(C)(=O)=O)cc1)n2C   9.5 µM
3  CC(C)N1C2CCC1CC(N1CCC(c3ccc4nc(-c5ccc(S(C)(=O)=O)cc5)n(C)c4c3F)CC1)C2 (single isomer, unassigned) [Example 103]  > 50 µM

Query (compound): COc1ccc(-c2nc3ccc(C4CCN(C5CCN(C(C)C)CC5)CC4)cc3n2CC(F)F)cc1OC ; field requested: IC50
> 50 µM

Now this one: COc1ccc(-c2nc3c(C)cc(C4CCN(C5CC6CCC(C5)N6CC(C)C)CC4)cc3n2C)cc1OC (single isomer, unassigned) [Example 18]
> 50 µM
